PROCEDURE_SUMMARY: antimalarial activity against Dd2 strain (AID 2302);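 note: 0% = DMSO untreated growth and 100% = chloroquine plus artemisinin killed control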
CONDITION: P. falciparum Dd2 in RBCs, LDH growth readout, 72 h; at 2 µM; hits give high values
RESULT_TYPE: growth inhibition (%)
Form entry: value (%) — number only.

Sample records with growth inhibition:
COMPOUND: COc1ccc(-c2cccc(NC(=O)c3cccc(Cl)c3)c2)cc1CN1CCCC1
VALUE_REPORTED: 66

COMPOUND: CN(C)Cc1ccc(-c2ccc(NC(=O)c3ccc4c(=O)n(Cc5ccoc5)cnc4c3)cc2)cc1
VALUE_REPORTED: 16

COMPOUND: Cc1noc(C)c1-c1ccc2c(Nc3ccccc3C(C)(C)C)c(C(=O)NCc3ccccc3)cnc2c1
VALUE_REPORTED: 89

Check the records and state growth inhibition for `NC(=O)C1CCN(Cc2ccc(-c3ccc(-c4nc5ccc(F)cc5[nH]4)cc3)cc2)CC1`
100

Provide only the value of recorded growth inhibition for NC1=NC2(CCCC2)C(c2ccc(Cl)c(Cl)c2)C(N)=N1 (stereo not given)
3

* * *

TESTED_TARGET: Protein kinase 7 (PK7), Plasmodium falciparum 3D7 (PF3D7_0213400) (UniProt Q7YTF7)
PROCEDURE_SUMMARY: inhibition of Plasmodium PK7 catalytic activity – biochemical, TCAMS antimalarial set, Kinase-Glo luminescence (AID 1159587)
CONDITION: recombinant PfPK7, Kinase-Glo ATP depletion luminescence
Activity calls are given as the source filed them. No rule for the calls is given here.
RESULT_TYPE: outcome

Consider the following illustrative entries.
MOLECULE: CC1(C)N=C(N)N=C(N)N1c1cccc(I)c1
outcome: inactive

MOLECULE: COc1ccc(C(=O)NC2CCN(c3ccnc4cc(Cl)ccc34)C2)cc1 (stereo not given)
outcome: inactive

MOLECULE: CCCC(C)Nc1nc(C)cc(N[C@@H](CC(C)C)C(=O)NCCc2ccccc2)n1 (stereo not given in full)
outcome: inactive

MOLECULE: Cc1cc(NC(=O)c2ccco2)ccc1OC1CCN(Cc2ccccc2)CC1
outcome: inactive

MOLECULE: Cc1ccc(NC(=O)c2ccc(NCCCN(C)Cc3ccccc3)c([N+](=O)[O-])c2)cc1F
outcome: inactive

Determine its reported outcome: `CCOc1ccc2c(NN=Cc3cccc(F)c3)cc(C)nc2c1`
inactive

Return outcome (reported value) for this molecule: `CC(=O)c1cccc(NC(=O)N2CCCN(CCCCCNC(=O)/C=C/c3ccc(Cl)c(Cl)c3)CC2)c1`
inactive

Please give the documented outcome of `COc1ccc2nccc([C@@H](O)CN3CCC(NC(=O)C(=Cc4ccc(Cl)cc4Cl)c4ccc(-c5ccccc5)cc4)CC3)c2c1`
inactive

# return recorded outcome for entry `CC(C)N(CC(=O)c1ccc(O)c(C(=O)O)c1)Cc1ccccc1`
inactive

Dear colleague, please send me the reported outcome for `Cc1nc(N)nc(N)c1OCc1cccc2c1ccc1ccccc12` when you can.
inactive

Answer with the recorded outcome of `O=C1CCCN1CCCNCc1ccc(-c2ccc(-c3nc4ccc(F)cc4[nH]3)s2)cc1` only.
inactive

Given `CC(=O)Nc1cccc(C(=O)Nc2ccc(-c3ccc(-c4nc5c(C)cccc5[nH]4)s3)cc2)c1` , respond with its outcome.
inactive

Consider the molecule COc1ccc2c(c1)Sc1ccccc1C(N1CCN(CCO)CC1)C2 (stereo not given) . State its measured outcome.
inactive

Report outcome, nothing else, for this molecule: CN(Cc1ccc(-c2ccc(C(F)(F)F)cc2)cc1)C(=O)Cn1c(CCc2cccc(F)c2F)cc(=O)c2ccc(OCC3CCCN3C)cc21 (stereo not given)
inactive

Input `Cc1ccc(NC(=O)c2ccc(C(=O)NC3CCN(CC4CCCCC4)CC3)cc2)cc1` , output reported outcome.
inactive

Note down outcome recorded for `CO/C(=C\C=C\c1cc2cc(Cl)c(Cl)cc2[nH]1)C(=O)NCCCNC12CC3CC(CC(C3)C1)C2`
inactive

Look up and report measured outcome for this entry: `O=C(/C=C/c1ccc(Cl)c(Cl)c1)NCCCCCN1CCCN(C(=O)Nc2cccc(C(F)(F)F)c2)CC1`
inactive

Tell me outcome reported for `CCCNCc1ccc(-c2ccc(CNC3Cc4ccccc4C3)cc2)nc1`
inactive

Tell me outcome reported for `Nc1nc2cccc3ccc4cccc1c4c32`
inactive

Determine its reported outcome: `O=C(Cc1cn(-c2ccccc2)nc1-c1ccc(Cl)cc1)Nc1nccs1`
inactive
